B1: LINE1-full (parent)
chain: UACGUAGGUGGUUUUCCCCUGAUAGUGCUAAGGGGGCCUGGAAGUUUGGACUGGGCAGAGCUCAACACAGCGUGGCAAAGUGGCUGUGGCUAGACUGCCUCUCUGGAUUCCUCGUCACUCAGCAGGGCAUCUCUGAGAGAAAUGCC

variants of: B1; assay: self-cleavage, relative activity (ratio to wild type); higher = more cleavage; in vitro, sequencing; the parent is a self-cleaving ribozyme
Classify by measured self-cleavage: Condition met if it is equal to or exceeds 1, Condition not met if it is smaller.

Here's what some known entries look like.
C95U	Condition not met
U14C C98U	Condition not met
G36C A140G	Condition met

Input line: Given the entry U108C A129C , answer whether its self-cleavage meets or surpasses 1.
Output line: Condition met

Input line: Record U9C G127U ; criterion: self-cleavage no lower than 1. Met?
Output line: Condition met

Input line: Could you tell me if the measured self-cleavage of A57G U100C reaches 1 or more?
Output line: Condition met

Input line: Quick check, self-cleavage >= 1? U9G A77G
Output line: Condition met

Input line: Record G33A A117G ; criterion: self-cleavage no lower than 1. Met?
Output line: Condition met

Input line: Threshold query (self-cleavage >= 1) on A43U A50G
Output line: Condition met

Input line: Hello, I need to know if A121G A136U has measured self-cleavage not below 1. Thanks!
Output line: Condition met
